System: MCF7
Test: Growth inhibition of human MCF7 cells after 48 hrs by sulforhodamine B assay
Type: functional
Settings: MCF7, 48 h
endpoint.name: GI50 (µM)
API: value field is a number in µM; no unit string.

line_notation=COc1ccc(/C=C(\C#N)c2ccc3c(c2)OCO3)c(OC)c1 experimental_system=MCF7 u=µM result_number=0.85
line_notation=COc1ccc(/C(C#N)=C/c2ccc3c(c2)OCCO3)cc1OC experimental_system=MCF7 u=µM result_number=0.86
line_notation=COc1ccc(/C=C/c2cc(OC)c(OC)c(OC)c2)cc1 experimental_system=MCF7 u=µM result_number=1.66
line_notation=COc1ccc(/C=C(\C#N)c2ccc3c(c2)OCO3)cc1 experimental_system=MCF7 u=µM result_number=0.08
line_notation=COc1cc(/C(C#N)=C/c2ccc3c(c2)OCCO3)cc(OC)c1OC experimental_system=MCF7 u=µM result_number=0.04

Consider the additional compound presented here.
Notebook: N#C/C(=C\c1cccc2ccccc12)c1ccc2c(c1)OCO2 , GI50 read as 1.99
